# assay-system: T1, hRET.mmh (human, UniProt P07949 29-635, biotinylated in the ELISA of Example 4 (biot-hRET.mmh); not in the SPR of Example 3)
# T1 construct: also called biot-hRET.mmh; soluble monomeric human RET
# protocol-notes: SPR Biacore T200, mAb capture, 25 C

binder: H4H8066P (antibody, human IgG4, V domains shown, human IgG4 Fc (H4H prefix)) VH: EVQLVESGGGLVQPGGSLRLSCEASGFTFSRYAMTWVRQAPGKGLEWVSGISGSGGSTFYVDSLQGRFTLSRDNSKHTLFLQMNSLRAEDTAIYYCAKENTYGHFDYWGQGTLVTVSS VL: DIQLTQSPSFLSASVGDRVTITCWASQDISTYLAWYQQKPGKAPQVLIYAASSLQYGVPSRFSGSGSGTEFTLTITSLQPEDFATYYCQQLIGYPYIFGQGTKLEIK
Kd, nM: 2.02
